- PROCEDURE_TEXT: self-splicing fitness, log relative to wild type (ln ratio); higher = more splicing; Tetrahymena group I intron in knt gene, E. coli kanamycin selection, DiMSum; sequences stand for … in CUCUCU…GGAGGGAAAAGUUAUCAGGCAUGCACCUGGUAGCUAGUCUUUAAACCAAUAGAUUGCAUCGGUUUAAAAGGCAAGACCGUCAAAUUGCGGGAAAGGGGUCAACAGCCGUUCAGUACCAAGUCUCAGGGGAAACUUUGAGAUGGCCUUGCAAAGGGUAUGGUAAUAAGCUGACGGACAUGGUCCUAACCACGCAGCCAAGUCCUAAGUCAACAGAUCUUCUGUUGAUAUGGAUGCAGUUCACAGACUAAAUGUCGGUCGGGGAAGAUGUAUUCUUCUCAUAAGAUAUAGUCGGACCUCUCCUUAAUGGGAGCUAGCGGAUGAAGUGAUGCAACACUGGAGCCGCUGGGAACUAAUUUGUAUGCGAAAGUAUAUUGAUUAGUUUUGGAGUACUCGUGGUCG;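 note: selection with 25 µg/mL kanamycin versus none on LB agar overnight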
- EXPERIMENTAL_PARAMETERS: 37 °C
VALUE_KIND: self-splicing fitness (ln)
Numbers only.

Consider the worked cases shown below.
       monomer_sequence  assay_value
0  CGCCAGCAAUAUUACGUGUG        -1.81
1  CUUCAGCAAUAUUACGAAUC        -1.06
2  CAGCAGCAAUAUUACGUACC        -2.46

Count: 5. Required value per item: self-splicing fitness (ln).
1. UGCGAGCAAUAUUACGGCUC
2. UCUCAGCAAUAUUACGCGUU
3. GGAUAGCAAUAUUACGUUUA
4. UAUUAGCAAUAUUACGUAUG
5. CCAGAGCAAUAUUACGGUCU

1. -3.21
2. -1.55
3. 0.714
4. -0.344
5. -2.31

---

- PROCEDURE_TEXT: self-splicing fitness, log relative to wild type (ln ratio); higher = more splicing; Tetrahymena group I intron in knt gene, E. coli kanamycin selection, DiMSum; sequences stand for … in CUCUCU…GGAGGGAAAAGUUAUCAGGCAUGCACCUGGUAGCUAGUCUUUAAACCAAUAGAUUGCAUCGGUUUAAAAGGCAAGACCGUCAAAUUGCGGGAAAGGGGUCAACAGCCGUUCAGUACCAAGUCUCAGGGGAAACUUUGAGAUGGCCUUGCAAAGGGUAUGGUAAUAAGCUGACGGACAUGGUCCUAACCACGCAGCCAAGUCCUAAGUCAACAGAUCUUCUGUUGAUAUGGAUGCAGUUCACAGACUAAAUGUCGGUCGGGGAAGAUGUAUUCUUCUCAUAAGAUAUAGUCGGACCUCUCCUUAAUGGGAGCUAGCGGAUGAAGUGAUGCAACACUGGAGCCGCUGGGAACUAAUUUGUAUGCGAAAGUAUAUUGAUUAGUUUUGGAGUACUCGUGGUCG
- EXPERIMENTAL_PARAMETERS: 37 °C
VALUE_KIND: self-splicing fitness (ln)
Give bare numbers.

>>> df
       monomer_sequence                  value_kind  assay_value
0  CCCCAGCAAUAUUACGUUUC  self-splicing fitness (ln)        -2.36
1  UAGCAGCAAUAUUACGGUGC  self-splicing fitness (ln)        -3.51
2  UUGGAGCAAUAUUACGUUUG  self-splicing fitness (ln)        -2.92
3  AGUCAGCAAUAUUACGGUGA  self-splicing fitness (ln)       -0.192

Items follow; give self-splicing fitness (ln) for each.
1. AAUGAGCAAUAUUACGUGCU
2. UGUAAGCAAUAUUACGAGAG
3. CGUGAGCAAUAUUACGCCGG
4. GGUAAGCAAUAUUACGGUAA

1: -2.44; 2: -1.87; 3: -2.58; 4: -0.53

Kindly give each listed record's self-splicing fitness (ln).
1. UCGAAGCAAUAUUACGUUAU
2. CACGAGCAAUAUUACGCGGU
3. AUGCAGCAAUAUUACGCUCC
4. AGGCAGCAAUAUUACGAAUG

1: -1.16; 2: -3.5; 3: 0.0573; 4: -1.73

Hey, can you go through the list below and give me self-splicing fitness (ln) for every item?
1. CCACAGCAAUAUUACGUUGG
2. CUGAAGCAAUAUUACGAUGG
3. GAAUAGCAAUAUUACGGGCA

1: -2.51; 2: 0.123; 3: -1.2

Data point: AUAGAGCAAUAUUACGUAUA ; self-splicing fitness (ln) = -0.371

---

- PROCEDURE_TEXT: self-splicing fitness, log relative to wild type (ln ratio); higher = more splicing; Tetrahymena group I intron in knt gene, E. coli kanamycin selection, DiMSum; sequences stand for … in CUCUCU…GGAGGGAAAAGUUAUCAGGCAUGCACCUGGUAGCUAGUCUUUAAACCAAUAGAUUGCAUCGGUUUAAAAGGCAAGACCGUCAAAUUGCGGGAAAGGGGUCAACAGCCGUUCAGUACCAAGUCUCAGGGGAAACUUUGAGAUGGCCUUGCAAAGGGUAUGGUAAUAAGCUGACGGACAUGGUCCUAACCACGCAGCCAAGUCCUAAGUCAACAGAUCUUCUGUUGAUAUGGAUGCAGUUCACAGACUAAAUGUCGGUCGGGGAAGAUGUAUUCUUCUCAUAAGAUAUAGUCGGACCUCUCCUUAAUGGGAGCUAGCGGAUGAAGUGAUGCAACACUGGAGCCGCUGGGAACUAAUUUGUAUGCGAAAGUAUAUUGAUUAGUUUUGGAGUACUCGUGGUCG
- EXPERIMENTAL_PARAMETERS: 37 °C
Provide the reported self-splicing fitness (ln) of each item.
Give bare numbers.

The cases that follow already have their self-splicing fitness (ln) on record.
>>> df
       monomer_sequence  assay_value
0  UGCGAGCAAUAUUACGUAAA        -1.77
1  GAAUAGCAAUAUUACGGCCC        0.174
2  GCGCAGCAAUAUUACGGUUC       0.0559
3  UCCGAGCAAUAUUACGAUGG       -0.212
4  AGGCAGCAAUAUUACGUUCA       -0.117

Please supply self-splicing fitness (ln) for each of the following items, keeping them in order.
1. GCGUAGCAAUAUUACGCACC
2. AUCGAGCAAUAUUACGCAUA
3. UGUUAGCAAUAUUACGAGAG
4. UUAAAGCAAUAUUACGGAGC
5. AUAUAGCAAUAUUACGACUA
6. CGCCAGCAAUAUUACGGUAG
7. UCCUAGCAAUAUUACGACUC
8. GCCUAGCAAUAUUACGAGAG

-1.49
-1.54
-3.15
-0.662
-0.351
-2.03
-2.24
-1.44

Please report self-splicing fitness (ln) for every entry that follows.
1. UUAAAGCAAUAUUACGUGAA
2. AUGGAGCAAUAUUACGGAAA
3. ACAGAGCAAUAUUACGAAGU
4. GAGCAGCAAUAUUACGUCUA

-0.0245
-2.35
-2.58
0.0653

For every listed record, write down its self-splicing fitness (ln).
1. AUCGAGCAAUAUUACGGGGA
2. AAGAAGCAAUAUUACGCUCC
3. UAUUAGCAAUAUUACGUGCG
4. AUGGAGCAAUAUUACGAGCU
5. CGUGAGCAAUAUUACGCCGA
6. AUAAAGCAAUAUUACGCUAC
7. CGUUAGCAAUAUUACGCCAU
8. CCGAAGCAAUAUUACGGAUA

-1.18
-0.643
-0.636
-2.17
-1.96
-2.99
-1.61
-1.18

Go through the items and report each one's self-splicing fitness (ln).
1. CCUCAGCAAUAUUACGCGUC
2. UCACAGCAAUAUUACGCUGA
3. CCUCAGCAAUAUUACGGGGA
4. GACGAGCAAUAUUACGUGAU
5. CGCAAGCAAUAUUACGUACG
6. AACGAGCAAUAUUACGAAUU
7. GAAAAGCAAUAUUACGGUAC
8. AUAUAGCAAUAUUACGCAGG

-2.18
-1.54
-2.1
-2.6
-0.768
-2.16
-1.11
-1.69

The recorded self-splicing fitness (ln) for UCUCAGCAAUAUUACGUUAU is -2.8

---

For each of the sequences below, state its self-splicing fitness (ln).
- PROCEDURE_TEXT: self-splicing fitness, log relative to wild type (ln ratio); higher = more splicing; Tetrahymena group I intron in knt gene, E. coli kanamycin selection, DiMSum; sequences stand for … in CUCUCU…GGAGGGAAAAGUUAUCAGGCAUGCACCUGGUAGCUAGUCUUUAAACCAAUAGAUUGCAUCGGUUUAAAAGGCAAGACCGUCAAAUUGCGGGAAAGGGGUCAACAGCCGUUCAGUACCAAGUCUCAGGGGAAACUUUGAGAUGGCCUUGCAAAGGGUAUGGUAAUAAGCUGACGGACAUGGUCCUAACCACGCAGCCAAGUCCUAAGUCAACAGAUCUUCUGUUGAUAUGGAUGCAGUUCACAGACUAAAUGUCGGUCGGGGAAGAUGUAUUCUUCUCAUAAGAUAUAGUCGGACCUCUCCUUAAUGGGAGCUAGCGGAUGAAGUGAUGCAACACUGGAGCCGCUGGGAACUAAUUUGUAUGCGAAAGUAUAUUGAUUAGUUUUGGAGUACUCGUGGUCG
- EXPERIMENTAL_PARAMETERS: 37 °C
Numbers only.

Each sequence below has a reported value. Please supply its self-splicing fitness (ln).
1. AAGGAGCAAUAUUACGUAGA
2. AUUUAGCAAUAUUACGUUUA
3. ACAUAGCAAUAUUACGCCCC
4. AUGGAGCAAUAUUACGAUUG
5. CGAAAGCAAUAUUACGCAUA
6. CCAUAGCAAUAUUACGACAU
7. UCUUAGCAAUAUUACGUUGU

1. -1.46
2. -1.07
3. -0.782
4. -3.12
5. -2.72
6. -2.93
7. -1.24

// for each sequence in input: emit self-splicing fitness (ln)
1. GAAGAGCAAUAUUACGUAUG
2. UACAAGCAAUAUUACGCAUC
3. AAGAAGCAAUAUUACGGCAA

[-2.16, -2.02, -0.201]
